Data provenance is patent US10934274B2.

- Target Or System: Axl (Homo sapiens)
- Construct: purchased Life Technologies
- Sequence (P30530 26-894): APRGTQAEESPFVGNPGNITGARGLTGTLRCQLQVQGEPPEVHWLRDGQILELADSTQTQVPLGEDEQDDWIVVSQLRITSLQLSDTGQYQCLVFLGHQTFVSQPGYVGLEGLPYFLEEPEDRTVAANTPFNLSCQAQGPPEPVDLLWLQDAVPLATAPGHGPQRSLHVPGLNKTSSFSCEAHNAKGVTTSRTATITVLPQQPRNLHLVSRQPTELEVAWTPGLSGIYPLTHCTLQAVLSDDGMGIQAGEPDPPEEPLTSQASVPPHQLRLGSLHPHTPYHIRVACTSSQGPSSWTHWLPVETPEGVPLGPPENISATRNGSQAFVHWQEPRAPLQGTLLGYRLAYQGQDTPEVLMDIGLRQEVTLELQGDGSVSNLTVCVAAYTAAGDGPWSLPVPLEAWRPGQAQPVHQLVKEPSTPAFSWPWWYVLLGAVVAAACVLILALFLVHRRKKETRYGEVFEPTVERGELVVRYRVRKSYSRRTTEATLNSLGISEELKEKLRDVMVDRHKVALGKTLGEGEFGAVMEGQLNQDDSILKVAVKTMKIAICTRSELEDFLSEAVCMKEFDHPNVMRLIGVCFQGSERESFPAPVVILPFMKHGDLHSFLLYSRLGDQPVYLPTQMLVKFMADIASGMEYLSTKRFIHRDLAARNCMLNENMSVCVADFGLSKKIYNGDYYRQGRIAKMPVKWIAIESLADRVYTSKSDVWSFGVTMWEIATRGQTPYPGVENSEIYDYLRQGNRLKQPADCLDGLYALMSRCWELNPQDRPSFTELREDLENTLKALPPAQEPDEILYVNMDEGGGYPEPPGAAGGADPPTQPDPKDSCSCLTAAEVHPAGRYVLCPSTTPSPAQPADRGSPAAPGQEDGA
- Test Description: LanthaScreen Eu kinase binding assay, Axl
- Condition: Tracer 236
pKd: −log10 of the molar value.
Experimental Readout: pKd

Answered examples (5):
CCOc1cnn(-c2ccc(C(C)(C)C)cc2)c1C(=O)Nc1ccc(Oc2ccnc3cc(OC)c(OC)cc23)cn1 [Compound 123] : 6.00 to 7.00
CCOc1cn(CC)nc1C(=O)Nc1ccc(Oc2ccnc3cc(OC)c(OC)cc23)cn1 [Compound 27] : > 7.00
CCOc1cn(Cc2cnccn2)nc1C(=O)Nc1ccc(Oc2ccnc3cc(OC)c(OC)cc23)cc1F [Compound 215] : > 7.00
CCOc1cnn(-c2cnc(C(F)(F)F)nc2)c1C(=O)Nc1ccc(Oc2ccnc3cc(OC)c(OC)cc23)cn1 [Compound 145] : ≤ 6.00
COc1cc2nccc(Oc3ccc(NC(=O)c4nn(-c5cnc(N)cn5)cc4OCC(F)(F)F)nc3)c2cc1OC [Compound 248] : > 7.00

Give the measured pKd of CCOc1cn(-c2cnccc2C(C)(C)O)nc1C(=O)Nc1ccc(Oc2ccnc3cc(OC)c(OC)cc23)cn1 [Compound 184] .
> 7.00

Now this one: CCOc1cnn(-c2ccc(C#N)nc2)c1C(=O)Nc1ccc(Oc2ccnc3cc(OC)c(OC)cc23)cn1 [Compound 53]
≤ 6.00

# repeat for CCOc1cn(-c2ccc(OC(F)(F)F)cc2Cl)nc1C(=O)Nc1ccc(Oc2ccnc3cc(OC)c(OC(F)(F)F)cc23)cn1 [Compound 201]
≤ 6.00

Proceed to CCOc1cnn(Cc2cnccn2)c1C(=O)Nc1ccc(Oc2ccnc3cc(OC)c(OC)cc23)cc1F [Compound 217]
≤ 6.00

Then what about the compound CCOc1cn(-c2cnccc2CO)nc1C(=O)Nc1ccc(Oc2ccnc3cc(OC)c(OC)cc23)cn1 [Compound 179] ?
> 7.00

* * *

Record type: Kd measurement. Applies to: Met (Homo sapiens)

What value of Kd has been reported for the following compound? CCOc1cn(CC(N)=O)nc1C(=O)Nc1ccc(Oc2ccnc3cc(OC)c(OC)cc23)cn1 [Compound 35]
≥ 1000 nM

Note, next up: CCOc1cn(CC(=O)O)nc1C(=O)Nc1ccc(Oc2ccnc3cc(OC)c(OC)cc23)cn1 [Compound 62]
≥ 1000 nM

Try this compound too: COc1cc2nccc(Oc3ccc(NC(=O)c4nn(-c5ccc(F)c(C(C)=O)c5)cc4OCC(F)(F)F)nc3)c2cc1OC [Compound 280]
< 100 nM

Check COc1cc2nccc(Oc3ccc(NC(=O)c4nn(-c5cnc(N)nc5)cc4OCC4CCC4)nc3)c2cc1OC [Compound 262] too.
< 100 nM

Next: CCOc1cn(-c2ccnc(O)c2)nc1C(=O)Nc1ccc(Oc2ccnc3cc(OC)c(OC)cc23)cn1 [Compound 7]
< 100 nM

Next record, please: COc1cc2nccc(Oc3ccc(NC(=O)c4nn(-c5ccc(F)cc5C5CCCC5)cc4OCC4CC4)nc3)c2cc1OC [Compound 270]
100 to 1000 nM

Entry CCOc1cn(-c2ccco2)nc1C(=O)Nc1ccc(Oc2ccnc3cc(OC)c(OC)cc23)cn1 [Compound 57] please
< 100 nM

* * *

pKd: −log10 of the molar value.
Measurement record for Mer (Homo sapiens, UniProt Q12866); quantity recorded: pKd.

Consider the worked cases shown below.
CCOc1cn(-c2cnccc2C(=O)OC)nc1C(=O)Nc1ccc(Oc2ccnc3cc(OC)c(OC)cc23)cn1 : > 7.00
CCOc1cn(-c2cnccc2OC)nc1C(=O)Nc1ccc(Oc2ccnc3cc(OC)c(OC)cc23)cn1 : > 7.00
CCOc1cn(-c2cnccc2C)nc1C(=O)Nc1ccc(Oc2ccnc3cc(OC)c(OC)cc23)cn1 : > 7.00
COc1cc2nccc(Oc3ccc(NC(=O)c4nn(-c5ccc(F)cc5C(C)=O)cc4OCC4CC4)nc3)c2cc1OC : > 7.00
CCOc1cnn(CC)c1C(=O)Nc1ccc(Oc2ccnc3cc(OC)c(OC)cc23)cn1 : 6.00 to 7.00

# pKd lookup, item `CCOc1cn(-c2ccco2)nc1C(=O)Nc1ccc(Oc2ccnc3cc(OC)c(OC)cc23)cn1`
> 7.00

Ok, now `CCOc1cn(-c2ccc(Cl)c(C(=O)N(C)C)c2)nc1C(=O)Nc1ccc(Oc2ccnc3cc(OC)c(OC)cc23)cn1`
> 7.00

Next: CCOc1cn(-c2cnccc2C(C)(O)CO)nc1C(=O)Nc1ccc(Oc2ccnc3cc(OC)c(OC)cc23)cn1 (stereo not drawn)
> 7.00
